Field: pKd. Provide a value for each of the binders that follow.
- Test target: human insulin receptor (HIR) (human, UniProt P06213)
- Method summary: competition
pKd: −log10 of the molar value.

Use the examples below as a reference point.
| Binder | Result |
| --- | --- |
| FHENFYDAFVRQVSKK [S222] | < 4.70 |
| SDGEYNAIELLS [S118] | 5.62 |
| ESFYDWFE [S402] | < 4.70 |

Request: Any idea what its pKd is? The binder is AFYEWFAKK [S214]
Result: < 4.70
